# Study target: furin, P09958;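 also: purified furin at 1:10 enzyme:substrate in 50 mM HEPES pH 7.5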
# Sequence (P09958 whole entry): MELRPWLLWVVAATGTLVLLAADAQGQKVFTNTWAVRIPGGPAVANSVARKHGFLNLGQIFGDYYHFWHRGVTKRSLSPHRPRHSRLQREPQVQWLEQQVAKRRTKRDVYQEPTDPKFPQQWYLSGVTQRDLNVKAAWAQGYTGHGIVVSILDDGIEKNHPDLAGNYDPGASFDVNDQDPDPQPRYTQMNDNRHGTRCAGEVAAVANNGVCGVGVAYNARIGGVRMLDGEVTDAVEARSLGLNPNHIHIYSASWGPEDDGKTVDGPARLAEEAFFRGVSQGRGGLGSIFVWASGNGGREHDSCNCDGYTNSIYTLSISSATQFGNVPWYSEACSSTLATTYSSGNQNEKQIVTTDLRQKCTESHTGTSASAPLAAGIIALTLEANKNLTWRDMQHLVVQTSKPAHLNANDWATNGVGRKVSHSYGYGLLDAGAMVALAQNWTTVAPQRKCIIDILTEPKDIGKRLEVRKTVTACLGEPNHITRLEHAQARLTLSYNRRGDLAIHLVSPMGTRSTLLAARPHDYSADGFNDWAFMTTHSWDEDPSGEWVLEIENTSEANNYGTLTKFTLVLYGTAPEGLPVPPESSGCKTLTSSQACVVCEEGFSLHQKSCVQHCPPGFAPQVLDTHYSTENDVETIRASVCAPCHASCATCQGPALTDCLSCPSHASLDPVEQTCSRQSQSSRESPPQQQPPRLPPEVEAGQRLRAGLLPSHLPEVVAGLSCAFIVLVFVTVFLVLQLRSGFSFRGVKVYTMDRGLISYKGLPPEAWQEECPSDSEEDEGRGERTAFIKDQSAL
# Experiment notes: furin cleavage Z-score vs untreated control; higher = more cleavage, active = 3.5 or more, inactive = 1 or less, 8 variable residues between constant flanks
# Condition summary: 30 min
The list shows a part of the results. No count for the full screen is at hand.
Experimental readout: furin cleavage Z-score
Form field (numeric): enter value without unit.

For CAVVCCSGSYAGNASASA [HC2056] , what is its reported furin cleavage Z-score? -1.32

Same thing, different sequence: CAPIIQRLHGAGNASASA [HC1601] -1.21

Same thing, different sequence: CAWRNRKKKTAGNASASA [FS-575] -1.25

Same thing, different sequence: CATAPCSGSWAGNASASA [HC1843] -1.22

Same thing, different sequence: CAFQARLTRSAGNASASA [FS-158] 9.98

Same thing, different sequence: CALLFNILGGAGNASASA [HC1064] -1.52

Same thing, different sequence: CAMCTTPCSGAGNASASA [HC1946] 0.427
